Would you mind telling me the reported cytotoxicity at 70.5 h of each entry?
Assay: Human HepG2 cell viability assay in 384 well format
Format: toxicity, cell-based
Parameters: dose 125 nL, time 70.5 hour; concentration not given beside the values
Conditions: HepG2 cells, read-out: Inhibition
Give bare numbers, in %.

Study these solved cases before continuing.
// returns reported cytotoxicity at 70.5 h for input O=C1CCCC2=C1C(c1ccccc1F)Nc1nonc1N2 (configuration not stated)
-3.65

Reported cytotoxicity at 70.5 h for CN1CCN(C(=O)NC2CC2)Cc2cccnc21 : what is it?
0.459

Look at this compound and give its reported cytotoxicity at 70.5 h. O=C(c1cccnc1)N1CCOC(CCCc2ccccc2)C1 (configuration not stated)
0.528

Look up cytotoxicity at 70.5 h for the entries below, preserving their order.
1. CN1CCC(C(=O)N2CCCN(c3cccnn3)CC2)C1 (configuration not stated)
2. O=C(c1c[nH]c(=O)[nH]1)N1CCCC2(CCC(=O)N(C3CCCC3)C2)C1 (configuration not stated)
3. Cc1ccoc1C(=O)N1Cc2c(Cn3ccnc3)nn(C)c2C1
4. CSc1ccc(-c2cc(CN)nc3ccnn23)cc1

1. -14.6
2. 1.3
3. 20.4
4. -12.2

Please supply cytotoxicity at 70.5 h for each of the following items, keeping them in order.
1. O[C@H]1CCN(CC2CC2)[C@H]1Cc1ccncc1
2. CCCc1nc(C(=O)N(C)Cc2cc(CC)no2)cs1
3. COCCC(C)NCc1ccccc1-n1ccnc1 (configuration not stated)
4. COc1ccccc1Oc1ncccc1CNC(=O)C(O)C(F)(F)F (configuration not stated)

1. -4.14
2. 0.552
3. -3.09
4. -5.77

----------
Assay: Human HepG2 cell viability assay in 384 well format
Type: toxicity, cell-based
Set-up: dose 125 nL, time 70.5 hour; concentration not given beside the values
Settings: HepG2 cells, read-out: Inhibition
Reported Endpoint: cytotoxicity at 70.5 h (%)
Numbers only, in %.

I am curious: what cytotoxicity at 70.5 h value has been reported for NC(=O)COc1ccc(CNCc2ccc(F)cc2F)cc1 ?
-5.1

Would you kindly share the measured cytotoxicity at 70.5 h for Cc1cnc(N2C[C@@H]3CN(C4CCOC4)CCC[C@]3(C(=O)O)C2)nc1 (stereo not given in full) ?
-7.9

For the compound shown here, Cc1ccc(N2CC[C@@H]3CN(Cc4cccc(C)n4)C[C@@H]3C2)nn1 , give the reported cytotoxicity at 70.5 h.
-4.34

Which cytotoxicity at 70.5 h is reported for this compound? Cc1ccc(-c2cccc(CC3(C(=O)O)CCOCC3)c2)c(C)c1
-5.38

Any idea what cytotoxicity at 70.5 h was measured for COc1ccc(S(N)(=O)=O)cc1C(=O)N(C)Cc1cc(C)on1 ?
24.6

Give cytotoxicity at 70.5 h for each of the items listed below.
1. CN1CC2(CCN(S(=O)(=O)C3CC3)CC2)c2ccccc21
2. Cc1ccc(CC(=O)N2CCOCC2c2ncon2)cc1 (stereo not given)
3. O=C(Cn1ccnc1)N(CCO)CCSc1ccc(Cl)cc1
4. CNC(=O)c1nc(COc2c(C)occc2=O)no1
5. Cc1ccc(-c2snnc2C(=O)NCCCO)cc1

1: 11; 2: -5.42; 3: -8.84; 4: -14.3; 5: -11.1

Okay, here is my list. What is cytotoxicity at 70.5 h for each of these?
1. Cc1cc(CN2C[C@@H]3COC[C@@H](C(=O)N4CCCCO4)[C@@H]3C2)no1
2. Cc1cc(CN(C)C(=O)NC2CCN(C3CC3)CC2)no1
3. CC(=O)NCCNC(=O)Nc1cccc(Cl)c1SC(F)F
4. CCn1cc(S(=O)(=O)N2CCN(S(=O)(=O)c3ccc(Br)s3)CC2)c(C)n1
5. Cc1nc(NC(=O)C(C)N2CCN(c3ccccc3F)CC2)sc1C (stereo not given)

[20.1, -3, -0.195, -9.33, -2.47]

Please supply cytotoxicity at 70.5 h for each of the following items, keeping them in order.
1. CC(NC(=O)NCCn1ccnc1)c1ccc2c(c1)CCC(=O)N2 (stereo not given)
2. CC(C)(CO)Nc1c(NCc2ccccn2)c(=O)c1=O
3. Cc1cc(=O)[nH]c(-n2nc(C)c(CCC(=O)Nc3nc(C)cs3)c2C)n1

13.7
-8.21
-3.34

----------
Test: Human HepG2 cell viability assay in 384 well format
Format: toxicity, cell-based
Set-up: dose 125 nL, time 70.5 hour; concentration not given beside the values
Settings: HepG2 cells, read-out: Inhibition
Hi there, I'd appreciate the recorded cytotoxicity at 70.5 h for every entry that follows.
Quote the value and follow it with the unit of measurement.

# annotated cases, reported cytotoxicity at 70.5 h shown
Can you look up the measured cytotoxicity at 70.5 h of CC(C)(C)c1ccn(C2(C(=O)O)CCN(c3ccncc3F)CC2)n1 for me?
-8.89%

Look up cytotoxicity at 70.5 h: Cc1nnc(NCc2cccc(OCC3CCCO3)c2)c(C#N)c1C (stereo unspecified)
29%

Please give the measured cytotoxicity at 70.5 h for this compound: COc1cc(C#N)ccc1OCC(=O)N(C1CC1)C(C)c1ccco1 (stereo unspecified)
-9.56%

Items follow; give cytotoxicity at 70.5 h for each.
1. CCc1cn[nH]c1C1CCCN(C(=O)c2ncoc2C(C)C)C1 (stereo unspecified)
2. O=C(NCc1nncn1C1CC1)C1(c2cccc(F)c2)CCOCC1
3. CS(=O)(=O)c1cncnc1C1CCCN(C(=O)Cc2ccccc2F)C1 (stereo unspecified)

-2.87%
-9.71%
-7.69%

----------
Assay: Human HepG2 cell viability assay in 384 well format
Assay type: toxicity, cell-based
Design: dose 125 nL, time 70.5 hour; concentration not given beside the values
Settings: HepG2 cells, read-out: Inhibition
Reported Endpoint: cytotoxicity at 70.5 h (%)
One number for each entry, in %.

Fill in the blank: the reported cytotoxicity at 70.5 h of Cc1cnc(CN(C)C2CCCN(c3cccnn3)C2)cn1 (stereo unspecified) is ____.
-0.507

Please look at the items below and tell me cytotoxicity at 70.5 h for each one, in order.
1. COCCCN1C(=O)CC[C@H]2CN(Cc3ncc[nH]3)CC[C@H]21
2. O=C(CN1CCCC1Cn1cncn1)Nc1nccs1 (stereo unspecified)
3. CSCc1noc(CN2CCC3(CC2)CC(=O)N(CC(C)C)C3)n1
4. Cc1cnn(CC2CN(CCS(=O)(=O)C(F)(F)F)CCO2)c1 (stereo unspecified)

1: 8.43; 2: -7; 3: -2.72; 4: 23.8

What value of measured cytotoxicity at 70.5 h is listed for Cc1ccc(CN2CCN(C3CCC3)CC2CCO)o1 (stereo unspecified) ?
-10.1

----------
Exercise: for every item that follows, state its recorded cytotoxicity at 70.5 h.
Test: Human HepG2 cell viability assay in 384 well format
Assay type: toxicity, cell-based
Parameters: dose 125 nL, time 70.5 hour; concentration not given beside the values
Conditions: HepG2 cells, read-out: Inhibition
Answers are plain numbers, in %.

Examples with answers:
Query (molecule): O=C1CCC2(CCN(Cc3cc(F)ccc3Cl)CC2)CN1C1CCCC1 ; field requested: cytotoxicity at 70.5 h
3.22

Quick check: cytotoxicity at 70.5 h of Cc1ccc(CN2CCC3(CC2)C(=O)N(CC(C)C)CCN3C)o1 ?
-10.1

Dear colleague, I am looking for the recorded cytotoxicity at 70.5 h of the following molecule: CN(Cc1ccccc1O)CC1CCCN(CCc2ccc(Cl)cc2)C1 (configuration not stated)
-2.45

# batch size: 3; output cytotoxicity at 70.5 h per entry
1. CC(C)NC(=O)C1CN(C(=O)Nc2ccc(F)cc2)CC12CCOCC2 (configuration not stated)
2. Cc1ccc(N2CCC3(CCN(Cc4csc(C)n4)C3=O)C2)nn1 (configuration not stated)
3. CCc1cc(N2CCC(n3cc(C(=O)NC4CC4)nn3)CC2)ncn1

[-6.35, -3.25, 12.5]

Record cytotoxicity at 70.5 h for all entries; do not skip any.
1. CCOCCCNC(=O)c1cc(C)nc(N2CCCC2)n1
2. CC(C)(O)CN1CCN(C(=O)COCC2CC2)CC1
3. CN1CCCN(c2ccc(F)cc2CNC(=O)c2cccnc2)CC1

[21.7, 2.07, 29.2]

Batch of 3 molecules: report cytotoxicity at 70.5 h for each.
1. Cc1cc(C(=O)N2CCN(Cn3cc(Cl)cn3)CC2)on1
2. c1cc(CN2CCCCC2)cc(NCc2cc[nH]n2)c1
3. O=C1CC(c2ccsc2)c2snc(C(=O)O)c2N1 (configuration not stated)

[-8.38, 7.51, 8.48]

----------
Assay: Human HepG2 cell viability assay in 384 well format
Format: toxicity, cell-based
Design: dose 125 nL, time 70.5 hour; concentration not given beside the values
Conditions: HepG2 cells, read-out: Inhibition
Reported Endpoint: cytotoxicity at 70.5 h (%)
Numbers only, in %.

Find the recorded cytotoxicity at 70.5 h belonging to O=C(c1ccc[nH]1)N1CCOCC12CCCC2 and report it.
30.2

Below are 4 compounds. Give each one its cytotoxicity at 70.5 h.
1. Cc1cccc(NC(=O)N2CCN(Cc3nnc(C(C)C)o3)CC2)c1
2. COc1ccc(C2OC(COc3ccc(C)cc3)=NN2C(C)=O)cc1 (stereo unspecified)
3. Cn1cc(CN2CCC(F)(F)C3(CCN(c4cnccn4)C3)C2)cn1 (stereo unspecified)
4. CCn1nc(C)c(S(=O)(=O)Nc2ccccc2C(=O)OC)c1C

[-7.45, 0.8, -0.766, 11.2]

Please go through the list and note cytotoxicity at 70.5 h for each compound.
1. CC(C)CN1CCc2[nH]cnc2C12CCN(C(=O)c1cncn1C)CC2
2. CO[C@H]1CN(C(=O)c2ccc3oc(C)cc3c2)C[C@@]12CCCO2

[-5.88, -3.4]

I need cytotoxicity at 70.5 h for every entry listed below, if you could help.
1. Cn1nccc1C1CCN(Cc2csc(-c3ncccn3)n2)CC1
2. CCN(CC1CCOC1)C(=O)c1cn2ccc(C)cc2n1 (stereo unspecified)

-5.7
-16.3

Please give cytotoxicity at 70.5 h for each item listed below.
1. CC(C)NC(=O)CC1CC2(CCN(CC3CC3)CC2)Oc2ccccc21 (stereo unspecified)
2. O=C(NCc1ccc(F)cc1)C1CCCN(c2ccc3nncn3n2)C1 (stereo unspecified)

1: 15.7; 2: 22
